TEST SYSTEM: UniProtKB P34969
Sequence (P34969 whole entry): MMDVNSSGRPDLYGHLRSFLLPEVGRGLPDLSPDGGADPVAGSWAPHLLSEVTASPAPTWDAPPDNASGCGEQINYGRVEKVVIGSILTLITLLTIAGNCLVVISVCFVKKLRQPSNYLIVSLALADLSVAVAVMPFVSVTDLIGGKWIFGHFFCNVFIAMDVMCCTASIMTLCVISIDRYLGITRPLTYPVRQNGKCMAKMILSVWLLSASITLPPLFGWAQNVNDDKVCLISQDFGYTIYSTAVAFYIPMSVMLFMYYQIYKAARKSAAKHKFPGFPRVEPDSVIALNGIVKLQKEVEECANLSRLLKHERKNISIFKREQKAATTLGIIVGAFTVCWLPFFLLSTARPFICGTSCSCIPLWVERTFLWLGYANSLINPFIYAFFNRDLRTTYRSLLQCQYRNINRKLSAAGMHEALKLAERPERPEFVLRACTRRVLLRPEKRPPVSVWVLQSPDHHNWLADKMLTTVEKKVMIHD
ASSAY DETAILS: Displacement of [3H]5CT from 5HT7 receptor
MEASUREMENT CONTEXT: read-out: Ki
READOUT NAME: Ki
Please append the unit to your numeric answer.

What value of measured Ki is listed for OC(CNCC1COc2ccccc2O1)COc1ccccc1F (configuration not stated) ?
197 nM

Please answer likewise for OC(CNCC1COc2ccccc2O1)COCc1ccccc1Cl (configuration not stated)
265 nM
